Subject Of Test: ScPFTase (protein farnesyltransferase), β-subunit (Saccharomyces cerevisiae)
Sequence (P22007 whole entry): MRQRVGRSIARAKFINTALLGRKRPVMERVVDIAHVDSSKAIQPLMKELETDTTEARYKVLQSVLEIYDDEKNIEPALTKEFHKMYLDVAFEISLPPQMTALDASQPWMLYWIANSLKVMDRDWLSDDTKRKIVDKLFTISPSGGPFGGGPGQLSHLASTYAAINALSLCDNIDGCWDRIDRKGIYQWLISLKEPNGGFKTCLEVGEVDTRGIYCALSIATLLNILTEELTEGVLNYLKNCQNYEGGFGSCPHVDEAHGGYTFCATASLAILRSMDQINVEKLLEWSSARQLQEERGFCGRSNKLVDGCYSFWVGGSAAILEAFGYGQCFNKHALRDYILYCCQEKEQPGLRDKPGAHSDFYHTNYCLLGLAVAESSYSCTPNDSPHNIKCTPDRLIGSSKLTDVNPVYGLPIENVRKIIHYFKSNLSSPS
Sequence (P29703 whole entry partner): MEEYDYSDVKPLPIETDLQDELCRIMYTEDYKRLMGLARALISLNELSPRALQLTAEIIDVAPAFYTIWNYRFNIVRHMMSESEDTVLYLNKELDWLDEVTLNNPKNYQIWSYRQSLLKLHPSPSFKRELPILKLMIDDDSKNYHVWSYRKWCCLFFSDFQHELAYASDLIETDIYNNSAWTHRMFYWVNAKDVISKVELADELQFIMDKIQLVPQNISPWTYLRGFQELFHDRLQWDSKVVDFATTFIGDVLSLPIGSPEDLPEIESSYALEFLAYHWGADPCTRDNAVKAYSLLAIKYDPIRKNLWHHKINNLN
Assay Explanation: continuous fluorescence assay with N-dansyl-GCVIA
Format: biochemical
Readout Name: pIC50
Remember the convention: pIC50 equals -log10 of concentration in molar.

Item: C/C(=C\COP(=O)(O)OP(=O)(O)O)CCCC(C)COC(=O)C(=[N+]=[N-])C(F)(F)F (racemic) | pIC50: 4.52

----------
Subject Of Test: ScPFTase (protein farnesyltransferase), β-subunit (Saccharomyces cerevisiae)
Assay Explanation: continuous fluorescence assay with N-dansyl-GCVIA
Format: biochemical
Readout Name: IC50 (µM)
Quick note: give the figure in µM, leave out the unit.

Item: C/C(=C\COP(=O)(O)OP(=O)(O)O)CC/C=C(\C)CNC(=O)C(=[N+]=[N-])C(F)(F)F | IC50: 50
